Source of measurements: ChEMBL document CHEMBL1144031

System Tested: Sodium-dependent dopamine transporter (Homo sapiens, UniProt Q01959)
Sequence (Q01959 whole entry): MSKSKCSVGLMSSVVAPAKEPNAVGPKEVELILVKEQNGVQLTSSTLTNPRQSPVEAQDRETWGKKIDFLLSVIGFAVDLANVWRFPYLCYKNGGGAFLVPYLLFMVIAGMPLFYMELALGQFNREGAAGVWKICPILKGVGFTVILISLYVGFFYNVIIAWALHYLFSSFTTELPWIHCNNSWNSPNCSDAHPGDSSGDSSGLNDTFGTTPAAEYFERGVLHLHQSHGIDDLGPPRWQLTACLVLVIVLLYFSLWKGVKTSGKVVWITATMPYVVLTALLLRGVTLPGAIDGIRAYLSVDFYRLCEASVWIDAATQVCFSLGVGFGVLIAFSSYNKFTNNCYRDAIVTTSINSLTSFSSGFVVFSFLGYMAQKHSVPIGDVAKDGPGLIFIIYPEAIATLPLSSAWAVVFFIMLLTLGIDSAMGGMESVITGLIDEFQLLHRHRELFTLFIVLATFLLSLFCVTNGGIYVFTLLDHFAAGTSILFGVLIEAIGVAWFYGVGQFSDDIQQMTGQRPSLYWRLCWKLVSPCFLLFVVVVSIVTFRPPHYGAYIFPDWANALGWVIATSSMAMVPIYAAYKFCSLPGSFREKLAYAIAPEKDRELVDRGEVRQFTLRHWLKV
Procedure Details: Inhibition of [3H]WIN-35428 uptake in human DAT transfected HEK293 cells
pKi: −log10 of the molar value.
pKi listing for selected molecules.

- Smiles Data: "Cc1cc(Oc2ccccc2C(C)C)c(CN(C)C)cn1"
  System Tested: "Sodium-dependent dopamine transporter (Homo sapiens, UniProt Q01959)"
  pKi: 5.54
- Smiles Data: "CCc1cc(Cl)ccc1Oc1cc(C)ncc1CNC"
  System Tested: "Sodium-dependent dopamine transporter (Homo sapiens, UniProt Q01959)"
  pKi: 5.36
- Smiles Data: "CNCc1cnc(C)cc1Oc1ccccc1Oc1ccccc1"
  System Tested: "Sodium-dependent dopamine transporter (Homo sapiens, UniProt Q01959)"
  pKi: 5.72
- Smiles Data: "COc1ccccc1Oc1cc(C)ncc1CN(C)C"
  System Tested: "Sodium-dependent dopamine transporter (Homo sapiens, UniProt Q01959)"
  pKi: 5.39
- Smiles Data: "CNCc1cnc(C)cc1Oc1ccccc1C(C)C"
  System Tested: "Sodium-dependent dopamine transporter (Homo sapiens, UniProt Q01959)"
  pKi: 5.67
- Smiles Data: "Cc1cc(Oc2ccccc2Cl)c(CN(C)C)cn1"
  System Tested: "Sodium-dependent dopamine transporter (Homo sapiens, UniProt Q01959)"
  pKi: 5.94
- Smiles Data: "CSc1ccccc1Oc1cc(C)ncc1CN(C)C"
  System Tested: "Sodium-dependent dopamine transporter (Homo sapiens, UniProt Q01959)"
  pKi: 5.71
- Smiles Data: "CNCc1cnc(C)cc1Oc1ccccc1OC"
  System Tested: "Sodium-dependent dopamine transporter (Homo sapiens, UniProt Q01959)"
  pKi: 5.32
- Smiles Data: "CNCc1cnc(C)cc1Oc1ccccc1C"
  System Tested: "Sodium-dependent dopamine transporter (Homo sapiens, UniProt Q01959)"
  pKi: 5.82
- Smiles Data: "CCOc1ccccc1Oc1cc(C)ncc1CN(C)C"
  System Tested: "Sodium-dependent dopamine transporter (Homo sapiens, UniProt Q01959)"
  pKi: 5.67
- Smiles Data: "CCc1ccccc1Oc1cc(C)ncc1CN(C)C"
  System Tested: "Sodium-dependent dopamine transporter (Homo sapiens, UniProt Q01959)"
  pKi: 5.58
- Smiles Data: "CCOc1ccccc1Oc1cc(C)ncc1CNC"
  System Tested: "Sodium-dependent dopamine transporter (Homo sapiens, UniProt Q01959)"
  pKi: 5.62
- Smiles Data: "CCc1ccccc1Oc1cc(C)ncc1CNC"
  System Tested: "Sodium-dependent dopamine transporter (Homo sapiens, UniProt Q01959)"
  pKi: 5.64
- Smiles Data: "CNCc1cnc(C)cc1Oc1ccccc1SC"
  System Tested: "Sodium-dependent dopamine transporter (Homo sapiens, UniProt Q01959)"
  pKi: 5.76

---

Procedure Details: Half life in human liver microsome
Assay type: ADME
Experimental Setup: liver microsomes
Quantity Name: half-life

- Smiles Data: "CNCc1cnc(C)cc1Oc1ccccc1Oc1ccccc1"
  Result: "> 2 h"

---

System Tested: Cytochrome P450 2D6 (Homo sapiens)
Sequence (P10635 whole entry): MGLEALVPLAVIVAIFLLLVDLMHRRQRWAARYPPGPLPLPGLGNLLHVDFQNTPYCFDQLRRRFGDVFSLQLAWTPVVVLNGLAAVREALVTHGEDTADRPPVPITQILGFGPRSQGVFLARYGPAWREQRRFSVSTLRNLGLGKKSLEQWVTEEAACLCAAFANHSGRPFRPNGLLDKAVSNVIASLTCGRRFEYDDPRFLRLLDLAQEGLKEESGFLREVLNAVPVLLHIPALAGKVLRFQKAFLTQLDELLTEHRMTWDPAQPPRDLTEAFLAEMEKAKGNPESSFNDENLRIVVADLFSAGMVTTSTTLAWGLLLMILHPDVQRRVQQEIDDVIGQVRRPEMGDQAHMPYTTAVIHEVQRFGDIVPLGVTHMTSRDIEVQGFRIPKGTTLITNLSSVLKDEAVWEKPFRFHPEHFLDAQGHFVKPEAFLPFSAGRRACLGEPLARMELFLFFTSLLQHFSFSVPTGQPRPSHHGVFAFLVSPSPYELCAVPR

- Smiles Data: "Cc1cc(Oc2ccccc2Oc2ccccc2)c(CN(C)C)cn1"
  Unit Of Measure: "nM"
  IC50: 610

---

Procedure Details: Apparent permeability from basolateral to apical side of the human CaCO2 membrane
Type: ADME, cell-based
Experimental Setup: Caco-2
Quantity Name: Papp B→A (×10⁻⁶ cm/s)

- Smiles Data: "CNCc1cnc(C)cc1Oc1ccccc1Oc1ccccc1"
  Quantity Name: "Papp B→A"
  Readout Number: 19

---

Procedure Details: Metabolic stability assessed as intrinsic clearance in human liver microsome
Format: ADME
Experimental Setup: liver microsomes

- Smiles Data: "Cc1cc(Oc2ccccc2C(C)C)c(CN(C)C)cn1"
  Unit Of Measure: "µL/min/mg"
  Value Operator: "="
  microsomal CLint: 17
- Smiles Data: "Cc1cc(Oc2ccccc2Oc2ccccc2)c(CN(C)C)cn1"
  Unit Of Measure: "µL/min/mg"
  Value Operator: "="
  microsomal CLint: 29
- Smiles Data: "CNCc1cnc(C)cc1Oc1ccccc1Oc1ccccc1"
  Unit Of Measure: "µL/min/mg"
  Value Operator: "<"
  microsomal CLint: 7
- Smiles Data: "CCc1ccccc1Oc1cc(C)ncc1CN(C)C"
  Unit Of Measure: "µL/min/mg"
  Value Operator: "<"
  microsomal CLint: 7

---

System Tested: Sodium-dependent serotonin transporter (Homo sapiens)
Sequence (P31645 whole entry): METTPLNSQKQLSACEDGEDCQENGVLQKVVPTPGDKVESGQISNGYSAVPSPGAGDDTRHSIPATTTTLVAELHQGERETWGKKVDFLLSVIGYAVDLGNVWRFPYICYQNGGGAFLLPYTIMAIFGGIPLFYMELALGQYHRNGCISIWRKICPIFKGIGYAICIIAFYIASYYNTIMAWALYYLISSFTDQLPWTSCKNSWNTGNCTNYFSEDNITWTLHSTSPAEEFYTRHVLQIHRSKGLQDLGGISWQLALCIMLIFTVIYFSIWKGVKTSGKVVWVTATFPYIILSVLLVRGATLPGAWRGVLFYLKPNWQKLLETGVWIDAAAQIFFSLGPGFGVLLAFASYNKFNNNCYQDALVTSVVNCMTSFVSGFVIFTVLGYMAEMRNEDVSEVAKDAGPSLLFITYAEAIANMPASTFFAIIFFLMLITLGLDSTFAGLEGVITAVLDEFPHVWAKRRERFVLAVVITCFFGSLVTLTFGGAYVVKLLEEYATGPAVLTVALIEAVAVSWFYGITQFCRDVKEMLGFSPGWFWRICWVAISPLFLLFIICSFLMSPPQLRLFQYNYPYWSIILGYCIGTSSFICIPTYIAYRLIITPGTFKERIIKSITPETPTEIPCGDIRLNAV
Procedure Details: Inhibition of [3H]Citalopram uptake in human 5HTT transfected HEK293 cells
pKi: −log10 of the molar value.

- Smiles Data: "Cc1cc(Oc2ccccc2Oc2ccccc2)c(CN(C)C)cn1"
  pKi: 5.39
- Smiles Data: "CNCc1cnc(C)cc1Oc1ccccc1Cl"
  pKi: 7.06
- Smiles Data: "CCOc1ccccc1Oc1cc(C)ncc1CNC"
  pKi: 6.66
- Smiles Data: "CCCc1ccccc1Oc1cc(C)ncc1CN(C)C"
  pKi: 5.55
- Smiles Data: "CCc1ccccc1Oc1cc(C)ncc1CN(C)C"
  pKi: 6.55
- Smiles Data: "CNCc1cnc(C)cc1Oc1ccccc1OC"
  pKi: 6.58
- Smiles Data: "Cc1cc(Oc2ccccc2C(C)C)c(CN(C)C)cn1"
  pKi: 5.83
- Smiles Data: "CCc1cc(Cl)ccc1Oc1cc(C)ncc1CNC"
  pKi: 7.74
- Smiles Data: "Cc1cc(Oc2ccccc2C)c(CN(C)C)cn1"
  pKi: 6.63
- Smiles Data: "CNCc1cnc(C)cc1Oc1ccccc1SC"
  pKi: 6.88
- Smiles Data: "CCCc1ccccc1Oc1cc(C)ncc1CNC"
  pKi: 6.09
- Smiles Data: "CCOc1ccccc1Oc1cc(C)ncc1CN(C)C"
  pKi: 5.32
- Smiles Data: "CCc1cc(Cl)ccc1Oc1cc(C)ncc1CN(C)C"
  pKi: 7.89
- Smiles Data: "Cc1cc(Oc2ccccc2Cl)c(CN(C)C)cn1"
  pKi: 6.62
- Smiles Data: "CNCc1cnc(C)cc1Oc1ccccc1Oc1ccccc1"
  pKi: 6.08
- Smiles Data: "CSc1ccccc1Oc1cc(C)ncc1CN(C)C"
  pKi: 6.42
- Smiles Data: "COc1ccccc1Oc1cc(C)ncc1CN(C)C"
  pKi: 5.85
- Smiles Data: "CCc1ccccc1Oc1cc(C)ncc1CNC"
  pKi: 6.36
- Smiles Data: "CNCc1cnc(C)cc1Oc1ccccc1C(C)C"
  pKi: 5.70
- Smiles Data: "CNCc1cnc(C)cc1Oc1ccccc1C"
  pKi: 6.87

---

Procedure Details: Lipophilicity, logD at pH 7.4
Format: physicochemical
Experimental Setup: buffer

- Smiles Data: "CNCc1cnc(C)cc1Oc1ccccc1Oc1ccccc1"
  logD: 1.6
- Smiles Data: "CCc1ccccc1Oc1cc(C)ncc1CN(C)C"
  logD: 2.1
- Smiles Data: "Cc1cc(Oc2ccccc2Oc2ccccc2)c(CN(C)C)cn1"
  logD: 2.4
- Smiles Data: "Cc1cc(Oc2ccccc2C(C)C)c(CN(C)C)cn1"
  logD: 2.5

---

Ki, Sodium-dependent noradrenaline transporter (Homo sapiens), per-entry values.

- Smiles Data: "CNCc1cnc(C)cc1Oc1ccccc1Oc1ccccc1"
  Ki (nM): 10
- Smiles Data: "CSc1ccccc1Oc1cc(C)ncc1CN(C)C"
  Ki (nM): 58
- Smiles Data: "CNCc1cnc(C)cc1Oc1ccccc1C"
  Ki (nM): 951
- Smiles Data: "CNCc1cnc(C)cc1Oc1ccccc1Cl"
  Ki (nM): 255
- Smiles Data: "Cc1cc(Oc2ccccc2Oc2ccccc2)c(CN(C)C)cn1"
  Ki (nM): 10
- Smiles Data: "CCOc1ccccc1Oc1cc(C)ncc1CNC"
  Ki (nM): 461

---

Target protein (sequence): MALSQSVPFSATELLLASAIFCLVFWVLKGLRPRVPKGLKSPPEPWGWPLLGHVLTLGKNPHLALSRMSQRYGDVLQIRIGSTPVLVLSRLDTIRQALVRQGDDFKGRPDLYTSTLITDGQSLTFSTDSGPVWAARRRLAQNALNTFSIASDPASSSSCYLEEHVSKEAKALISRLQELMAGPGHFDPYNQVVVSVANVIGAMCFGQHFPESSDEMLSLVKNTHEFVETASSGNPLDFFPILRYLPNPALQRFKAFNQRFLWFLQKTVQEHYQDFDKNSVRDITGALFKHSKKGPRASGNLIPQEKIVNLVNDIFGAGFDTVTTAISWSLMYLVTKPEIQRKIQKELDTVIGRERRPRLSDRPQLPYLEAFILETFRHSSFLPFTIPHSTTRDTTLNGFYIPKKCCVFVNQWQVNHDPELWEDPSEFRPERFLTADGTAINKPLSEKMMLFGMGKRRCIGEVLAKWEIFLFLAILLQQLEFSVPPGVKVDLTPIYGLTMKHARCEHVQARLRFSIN
pIC50: −log10 of the molar value.
Quantity Name: pIC50

- Smiles Data: "CNCc1cnc(C)cc1Oc1ccccc1Oc1ccccc1"
  Result: "< 5.52"

---

System Tested: Voltage-gated inwardly rectifying potassium channel KCNH2 (Homo sapiens)
Sequence (Q12809 whole entry): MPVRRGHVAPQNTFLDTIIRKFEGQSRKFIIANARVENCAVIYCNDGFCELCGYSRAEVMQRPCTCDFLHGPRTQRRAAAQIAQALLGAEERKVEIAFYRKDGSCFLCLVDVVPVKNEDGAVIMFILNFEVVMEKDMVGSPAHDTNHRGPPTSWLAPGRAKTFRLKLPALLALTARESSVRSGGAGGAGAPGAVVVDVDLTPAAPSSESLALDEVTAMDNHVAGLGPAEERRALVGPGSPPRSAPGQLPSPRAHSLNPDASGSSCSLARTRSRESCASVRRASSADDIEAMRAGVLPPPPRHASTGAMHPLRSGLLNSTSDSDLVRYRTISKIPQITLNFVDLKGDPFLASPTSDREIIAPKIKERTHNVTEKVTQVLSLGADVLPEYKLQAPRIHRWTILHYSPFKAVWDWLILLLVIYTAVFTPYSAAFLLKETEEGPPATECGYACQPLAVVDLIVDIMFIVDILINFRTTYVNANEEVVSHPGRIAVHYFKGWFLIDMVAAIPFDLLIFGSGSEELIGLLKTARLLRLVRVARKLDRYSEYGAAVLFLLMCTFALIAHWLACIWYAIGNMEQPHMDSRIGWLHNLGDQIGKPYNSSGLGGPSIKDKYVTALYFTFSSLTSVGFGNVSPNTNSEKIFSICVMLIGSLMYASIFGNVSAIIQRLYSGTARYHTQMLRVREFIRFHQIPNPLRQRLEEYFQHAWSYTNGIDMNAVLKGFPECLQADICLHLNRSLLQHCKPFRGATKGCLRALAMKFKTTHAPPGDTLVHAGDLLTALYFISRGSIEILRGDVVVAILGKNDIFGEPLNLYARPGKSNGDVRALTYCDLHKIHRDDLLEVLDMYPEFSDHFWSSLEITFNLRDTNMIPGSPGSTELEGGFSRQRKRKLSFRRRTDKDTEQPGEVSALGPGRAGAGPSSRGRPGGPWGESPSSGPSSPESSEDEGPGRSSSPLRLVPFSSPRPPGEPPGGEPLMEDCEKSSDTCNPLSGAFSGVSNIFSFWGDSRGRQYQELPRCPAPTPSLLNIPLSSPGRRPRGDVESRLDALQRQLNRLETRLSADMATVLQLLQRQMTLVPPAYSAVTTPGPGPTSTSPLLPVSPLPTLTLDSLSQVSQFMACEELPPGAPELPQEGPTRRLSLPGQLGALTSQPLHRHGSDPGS

- Smiles Data: "CNCc1cnc(C)cc1Oc1ccccc1Oc1ccccc1"
  Unit Of Measure: "µM"
  Ki: 5.8
